TEST_SYSTEM: hAR (Homo sapiens)
Sequence (P10275 whole entry): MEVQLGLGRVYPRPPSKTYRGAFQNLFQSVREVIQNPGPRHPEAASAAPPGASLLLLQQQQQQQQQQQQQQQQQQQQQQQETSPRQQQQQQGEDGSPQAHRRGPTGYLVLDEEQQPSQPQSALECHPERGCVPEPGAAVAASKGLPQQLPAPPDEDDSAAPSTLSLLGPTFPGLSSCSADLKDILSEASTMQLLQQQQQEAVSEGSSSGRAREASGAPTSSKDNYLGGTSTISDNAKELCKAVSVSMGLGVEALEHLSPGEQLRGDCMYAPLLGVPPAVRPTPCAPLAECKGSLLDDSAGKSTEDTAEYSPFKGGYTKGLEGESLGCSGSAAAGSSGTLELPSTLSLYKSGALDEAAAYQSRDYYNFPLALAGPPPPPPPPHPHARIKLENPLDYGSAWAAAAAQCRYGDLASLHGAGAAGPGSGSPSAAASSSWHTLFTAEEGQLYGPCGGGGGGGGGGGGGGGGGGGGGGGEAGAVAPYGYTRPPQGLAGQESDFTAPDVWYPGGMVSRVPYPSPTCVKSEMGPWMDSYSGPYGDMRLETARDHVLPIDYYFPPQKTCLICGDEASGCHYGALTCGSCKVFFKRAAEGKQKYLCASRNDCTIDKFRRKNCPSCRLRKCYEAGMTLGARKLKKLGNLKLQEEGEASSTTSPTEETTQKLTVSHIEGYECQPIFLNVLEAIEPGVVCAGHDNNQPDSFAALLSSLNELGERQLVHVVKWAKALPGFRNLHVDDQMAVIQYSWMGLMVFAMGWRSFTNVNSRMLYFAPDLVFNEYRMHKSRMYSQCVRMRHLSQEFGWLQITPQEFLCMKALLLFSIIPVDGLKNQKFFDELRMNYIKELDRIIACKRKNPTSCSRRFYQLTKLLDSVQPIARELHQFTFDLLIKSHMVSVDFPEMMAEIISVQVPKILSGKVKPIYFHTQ
MEASUREMENT_NOTES: Competitive binding of 3H-DHT to baculovirus/Sf9 generated hAR extracts
ASSAY_SETUP: concentration at which one half of maximum binding of 1 nM 3H-DHT to hAR is inhibited; one hour at 4° C.; mean of multiple tests; read-out: IC50
OBSERVATION_TYPE: pIC50
Lab note — pIC50 values are minus log10 of concentrations in M.

Worked examples follow.
COMPOUND	pIC50
COc1cccc(S(=O)(=O)N2CC(C)(C)C(Oc3ccc(C#N)c(C(F)(F)F)c3)C2=O)c1 (stereo not shown) [Example 74]	6.97
COc1ccccc1-c1nnc(CN2CC(C)(C)C(Oc3ccc(C#N)c(C(F)(F)F)c3)C2=O)o1 (stereo not shown) [Example 121]	6.88
CC1(C)CN(C(=O)c2ccccc2)C(=O)C1Oc1ccc(C#N)c(C(F)(F)F)c1 (single isomer, unassigned; (+)) [Example 105]	6.60

Okay, now this compound:
// query Enter reported pIC50 observed with hAR (Homo sapiens) for Cc1ccccc1S(=O)(=O)N1CC(C)(C)C(Oc2ccc(C#N)c(C(F)(F)F)c2)C1=O (stereo not shown) [Example 94]
// result 6.82
